- Test system: MDA-MB-231 breast
- assay_explanation: NCI tumour cell line growth inhibition, 48 h
In this section we review reported TGI values for a set of compounds.

# compound, censoring_operator, TGI / µM
rows = [
    ("Cc1ccc(S(=O)(=O)OCC#CCOS(=O)(=O)c2ccc(C)cc2)cc1", "=", 11),
    ("COc1ccc(C(C)c2cc(OC)c(OC)c(OC)c2)cc1 (configuration not stated)", ">", 50),
    ("C=C1C(=O)OC2C1C(OC(=O)/C(C)=C/C)CC(O)(CCl)C1C(O)C=C(C)C21O (configuration not stated)", "=", 30.9),
    ("COC(=O)CCC1=NCC(C)(C)O1", ">", 10),
    ("COc1ccc(C(=O)NC2=C(Cl)C(=O)c3ccccc3C2=O)cc1", "=", 14.6),
    ("CCOC(=O)Nc1sc2c(c1C#N)CC(C)CC2 (configuration not stated)", "=", 46.7),
    ("CN(CCO)Cc1ncccc1O", ">", 100),
    ("Cc1ccc(/C=C/C(=N/NC(=O)N/N=C(/C=C/c2ccc(C)cc2)C(C)C)C(C)C)cc1", ">", 10),
    ("C[C@@H]1[C@H](O)CC2=C(CC[C@@H](O)C2(C)C)[C@@]1(CO)CCc1ccoc1", ">", 50),
    ("N#Cc1cnc2cc(OC[C@@H](O)CO)c(NC(=O)C3CCCC3)cc2c1Nc1ccc(OCc2cccc(F)c2)c(Cl)c1", "=", 1.82),
    ("O/N=C(/C(Cl)=C(Cl)Cl)C(Cl)Cl", "=", 40),
    ("CCC(=O)NI1OC(=O)c2ccccc21", ">", 100),
    ("CCOC(=O)c1nc2ccccc2nc1NCc1ccc(OC)c(OC)c1", ">", 100),
    ("c1ccc2c(c1)nn1c3ccc4nonc4c3[n-][n+]21", ">", 100),
    ("C=C1C(=O)O[C@H]2C1C[C@@H](O)/C(C)=C/CC[C@@]1(C)O[C@H]21 (some centres not stated)", "=", 44.8),
    ("CN(CCNC(=O)c1c[nH]c2c1ccc1ccccc12)CCNC(=O)c1c[nH]c2c1ccc1ccccc12", "=", 3.2),
    ("CC(=O)N1c2ccccc2C2=NN(C)C(=N)SC21 (configuration not stated)", ">", 100),
    ("CCOC(=O)C(Cc1c[nH]c2cc(N(CCO)CCO)ccc12)(NC(C)=O)C(=O)OCC", ">", 1000),
    ("CC[C@@]1(OC(=O)C(N)CCCCN)C(=O)OCc2c1cc1n(c2=O)Cc2cc3ccccc3nc2-1 (some centres not stated)", ">", 100),
    ("O=S(=O)(NCCNc1nccc(-c2c(-c3ccc(F)c(O)c3)nc3sccn23)n1)c1ccc(Cl)cc1", "=", 24.1),
    ("O=c1cc(-c2ccccc2)[nH]c2ccc(S)cc12", ">", 100),
    ("Nc1c(C(=O)Nc2ccccn2)sc2nc3c(cc12)C(O)CCC3 (configuration not stated)", ">", 50),
]

---

- Test system: BT-549 breast
- assay_explanation: NCI tumour cell line growth inhibition, 48 h; in the data active means GI50 below about 0.43 µM; inactive means the rest
Labels: 1 (yes) (active), 0 (no) (inactive)

# molecule, target_under_test, group_label
records = [
    ("COc1ccc(C(C)c2cc(OC)c(OC)c(OC)c2)cc1 (stereo not given)", "BT-549 breast", "1 (yes)"),
    ("Cc1cc(C(=O)/C=C/c2ccc[nH]2)ccc1-n1ccc(C(F)(F)F)n1", "BT-549 breast", "0 (no)"),
    ("COc1cccc(-c2nn(-c3ccccc3)cc2-c2ccnc(NCCCNC(=O)c3cccc(C(F)(F)F)c3)c2)c1", "BT-549 breast", "0 (no)"),
    ("COc1cccc(/C=C/c2nc3c(cnn3-c3ccccc3)c(=O)[nH]2)c1", "BT-549 breast", "0 (no)"),
    ("Cc1c(Cl)c(=O)oc2cc(OC/C=C3\\CCC(=O)O3)ccc12", "BT-549 breast", "0 (no)"),
]

---

Recorded TGI by entry
- Tested on: MDA-MB-435
- assay_explanation: NCI tumour cell line growth inhibition, 48 h

# compound, censoring_operator, TGI [µM]
measured = [
    ("CN(C)CCNCc1ccc2c(-c3ccccc3)nc3cc(Cl)c(Cl)cc3n12", "=", 21.9),
    ("O=C(CSCC(=O)N/N=C/c1ccccc1O)N/N=C\\c1ccccc1O", ">", 100),
    ("O=C(O)c1cc2ccccc2c2c3c(ccc12)OCO3", "=", 519),
    ("CC(=O)Oc1ccc2c(c1)[C@@]1(C)CCCC(C)(C)[C@@H]1CC2", "=", 40),
    ("COc1cc2cc(C(=O)N3CC(CCl)c4ccc([N+](C)(C)Cc5ccc([N+](=O)[O-])cc5)cc43)[nH]c2c(OC)c1OC (stereo not drawn)", "=", 24),
    ("Cc1c(Cl)c(=O)oc2cc(OC/C=C3\\CCC(=O)O3)ccc12", "=", 96.3),
    ("CC(C)=NNc1snnc1C(N)=O", ">", 100),
    ("CNCCN[C@@H]1c2cc3c(cc2[C@@H](c2cc(OC)c(O)c(OC)c2)[C@H]2C(=O)OC[C@@H]21)OCO3", "=", 6.32),
    ("N#Cc1ccc(-c2c(-c3ncn[nH]3)sc(N3CCOCC3)c2C#N)c(F)c1", "=", 17),
    ("Cc1ccc(C(=O)c2sc3nc4c(cc3c2N)CCCC4)c(C)c1", "=", 0.086),
    ("CC(C)c1ccc(C2NC(=S)NC3=C2c2ccccc2C3=O)cc1 (stereo not drawn)", "=", 21.4),
    ("COC(=O)[C@H](Cc1ccccc1)NC(=O)N(CCC#N)CCCCN(CCC#N)C(=O)N[C@@H](Cc1ccccc1)C(=O)OC", ">", 100),
    ("CCOC(=O)/C(=C\\NC(C)(C)C)c1nc2ccccc2[nH]1", "=", 38.6),
    ("N#CCCN(CCC#N)c1ccc(C(N=Nc2ccc(Cl)cc2)=Nc2ccccc2)cc1", "=", 27.5),
    ("CCC(=O)NI1OC(=O)c2ccccc21", ">", 100),
    ("C=CC(COC(=O)C(C)(C)OC(C)=O)c1ccc(OC(=O)C(C)C)c(OC)c1 (stereo not drawn)", "=", 27.8),
    ("CN(CCNC(=O)c1c[nH]c2c1ccc1ccccc12)CCNC(=O)c1c[nH]c2c1ccc1ccccc12", "=", 3.47),
    ("CCN(CC)c1c(-c2ccccc2)n[nH]c1C(=O)OC", "=", 55.6),
    ("CC1=C(/C=C/C(=O)CC(=O)/C=C/C2=C(C)CCCC2(C)C)C(C)(C)CCC1", ">", 100),
    ("CCOC(=O)c1nc2ccccc2nc1NCc1ccc(OC)c(OC)c1", ">", 100),
    ("Cc1cc(-c2nnc(/C=C/c3ccc4c(c3)OCO4)o2)n[nH]1", "=", 2.52),
    ("COc1cc2oc(=O)cc(C)c2c(OC)c1O", ">", 100),
    ("O/N=C1\\CC2(N3CCOCC3)CCC1(c1ccccc1)CC2", ">", 100),
    ("O=C(O)C(O)(c1ccc(-c2ccccc2)cc1)c1ccc(-c2ccccc2)cc1", "=", 43.7),
    ("COC1CC(OC2CCC3(C)C(=CCC4C3C(OC(C)=O)C(OC(=O)CC(C)C)C3(C)C(C(C)=O)CCC43O)C2)OC(C)C1OC1CC(OC)C(OC2CC(OC)C(OC3OC(C)C(O)C(OC)C3O)C(C)O2)C(C)O1 (stereo not drawn)", "=", 63.5),
    ("COc1cc(Cl)cc(-c2nn(-c3cccc(NC(=O)Nc4cccc(C(F)(F)F)c4)c3)cc2-c2ccncc2)c1", "=", 3.82),
    ("CCCCN(CCCC)CCC(O)c1cc(-c2ccc(C(F)(F)F)cc2)nc(-c2ccc(C(F)(F)F)cc2)c1 (stereo not drawn)", ">", 100),
    ("COC1=N[C@H](C(C)C)C(OC)=N[C@H]1Cc1ccc(C[C@@H]2N=C(OC)[C@@H](C(C)C)N=C2OC)s1", ">", 100),
]

---

- System: HCT-15 colon
- assay_explanation: NCI tumour cell line growth inhibition, 48 h; in the data active means GI50 below about 0.43 µM; inactive means the rest
Outcome codes: active, inactive

# molecule, group_label
measured = [
    ("CO[C@@H]1CCN(c2nccc(Nc3cc4c(C(C)C)ccc(N5CC(CS(C)(=O)=O)[C@H]5C)c4cn3)n2)C[C@@H]1F (some centres undefined)", "inactive"),
    ("Cc1cc(C(=O)Nc2n[nH]c3ccccc23)n[nH]1", "inactive"),
    ("COc1cc(-n2cc(-c3ccccc3)[nH]c2=O)cc(OC)c1OC", "inactive"),
    ("CCN(CC)c1c(-c2ccccc2)n[nH]c1C(=O)OC", "inactive"),
    ("COc1ccc(C(C)c2cc(OC)c(OC)c(OC)c2)cc1 (centres undefined)", "active"),
    ("NCCCOc1cc2ccccc2cc1C(=O)Nc1ccc(Cl)cc1OC(=O)c1cc2ccccc2cc1OCCCN", "inactive"),
    ("O=C1CC[C@H](N2Cc3c(OCc4ccc(CN5CCOCC5)cc4)cccc3C2=O)C(=O)N1", "inactive"),
    ("[N-]=[N+]=NCCCn1c2c(c3ccc([N+](=O)[O-])cc3c1=O)C(=O)c1cc3c(cc1-2)OCO3", "inactive"),
    ("CC(C)(C)c1cc(C(=O)Nc2ccc(C(=O)NCCN)cc2)cc(C(C)(C)C)c1", "inactive"),
    ("COc1ccc(/C(C)=N/NC(=O)CSc2nc3ccccc3c(=O)n2CCc2ccc(S(N)(=O)=O)cc2)cc1", "inactive"),
    ("C=C1c2ccccc2C(=O)c2c1c1c(C(=O)OC)c(OC(=O)OCc3ccc([N+](=O)[O-])cc3)ccc1n2Cc1ccccc1", "inactive"),
    ("Cc1ccc(Nc2cc(Cl)c([N+](=O)[O-])cc2[N+](=O)[O-])cc1", "inactive"),
    ("COCCOCCOCc1n(Cc2ccc3ccccc3c2)c2ccccc2[n+]1Cc1ccc2ccccc2c1", "inactive"),
    ("COc1cccc(-c2nn(-c3ccccc3)cc2-c2ccnc(NCCCNC(=O)c3cccc(C(F)(F)F)c3)c2)c1", "inactive"),
    ("NCCCCCNc1noc(Cc2c[nH]c3cc(Br)ccc23)n1", "inactive"),
    ("CN(C)C(=O)OCc1nc2c(N3CCOCC3)nc(-c3ccccc3)nc2n1C", "active"),
    ("Clc1ccc(C2CC(c3cccc(Nc4ccncc4)c3)=NN2c2ccc(Cl)cc2)cc1 (centres undefined)", "inactive"),
    ("Cc1c(Cl)c(=O)oc2cc(OC/C=C3\\CCC(=O)O3)ccc12", "inactive"),
    ("O=C1Nc2cc(-c3cccc(O)c3)ccc2/C1=C/c1ccc[nH]1", "active"),
]
